# target of assay: CaSla1-D3
# method summary: SPOT peptide array binding signal intensity (averaged, normalized) (arbitrary units (background-subtracted, floor 0; scale differs between SH3 domains)); higher = stronger binding of the SH3 domain to the peptide
measured attribute: SPOT peptide array binding signal intensity

{"columns": ["binder", "result comparator", "value"],
 "data": [
  ["AAHKTKPSIPPKKVE", "=", 3.25],
  ["QFDLKMPSKPIHNLK", "=", 77],
  ["ITHRLRISIPGITGR", "=", 454],
  ["SNRRPVPRRPSQPLN", "=", 14.2],
  ["VPVAPPPPPASLGQS", "≤", 0],
  ["NIKVLLNPKLGKPVK", "=", 26],
  ["AATTSTPPLPRRRAT", "≤", 0],
  ["NHSRSLFSLPGNQQS", "=", 23.8],
  ["TTAPALPSLPPPPLL", "=", 0.25],
  ["VYTRTAFQIPGDDKI", "=", 0.5],
  ["VFQFQMPTTPISTKM", "=", 454],
  ["PLRRTVMSLPGNHDI", "=", 60.2],
  ["ALFRLSFFFPLDPAY", "=", 848],
  ["SKIRPTPRKPSRMAT", "=", 104],
  ["LYEAMPPTLPHRDWK", "=", 60.5]
]}
